Readings of IC50 for the listed compounds
# TEST: in vitro
# CONDITION INFO: rat, Cell Toxicity IC50 (uM) [cFib assay], cFib assay

Task item: Any idea what its IC50 is? The compound is O=C1C=C2C=C[C@@H]3C[C@@]2(O1)[C@H]1CCCCN31 [Securinine, reference compound]
Reply: > 20 µM

Task item: Returns the measured IC50 for the input compound. Input: COC(=O)Nc1nc2ccc(Sc3ccccc3)cc2[nH]1 [Fenbendazole, reference compound]
Reply: > 20 µM

Task item: For CCCC(=O)O[C@]1(C(=O)CO)CC[C@H]2[C@@H]3CCC4=CC(=O)CC[C@]4(C)[C@H]3[C@@H](O)C[C@@]21C [Hydrocortisone butyrate, reference compound] , what is its reported IC50?
Reply: > 20 µM

Task item: Dear colleague, I am looking for the recorded IC50 of the following compound: CCOC(=O)[N-]c1cn(N2CCOCC2)n[o+]1 [Molsidomine, reference compound]
Reply: > 20 µM

Task item: Look up IC50 for this compound: O=c1[nH]c2ccccc2n1C1CCN(CCCC(c2ccc(F)cc2)c2ccc(F)cc2)CC1 [Pimozide, reference compound]
Reply: > 20 µM

Taken from patent US20210330611A1.
